Target: T1, Extracellular domain of cyno PD1 (cPD1-ECD) (Macaca fascicularis (cynomolgus))
T1 construct: Expressed with a hexahistidine tag or as Fc fusion; also called cynoPD1-ECD; cynoPD-1-ECD
T1 chain: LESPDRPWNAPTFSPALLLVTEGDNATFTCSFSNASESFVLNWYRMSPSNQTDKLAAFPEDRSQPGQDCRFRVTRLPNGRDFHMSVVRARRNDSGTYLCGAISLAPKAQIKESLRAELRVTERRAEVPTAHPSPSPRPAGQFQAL
Assay: SPR ProteOn, cynoPD1-ECD; RANGE high replicate; RANGE high replicate

{"binder": "PD1B185 (antibody, human IgG2, kappa, V domains shown, IgG2sigma/kappa; VH 43, VL 55; also called PD1H3/PD1L132) VH: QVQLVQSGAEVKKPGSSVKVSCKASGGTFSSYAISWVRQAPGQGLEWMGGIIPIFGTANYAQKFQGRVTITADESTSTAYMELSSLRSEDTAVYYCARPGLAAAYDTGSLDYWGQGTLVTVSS VL: EIVLTQSPATLSLSPGERATLSCRASQSVRNYLAWYQQKPGQAPRLLIYDASDRATGIPARFSGSGSGTDFTLTISSLEPEDFAVYYCQQRWNWPLTFGQGTKVEIKR", "valueUnit": "M⁻¹ s⁻¹", "kon": 343000}
{"binder": "PD1B149 (antibody, human IgG2, kappa, V domains shown, IgG2sigma/kappa; VH 41, VL 50; also called PD1H24/PD1L128) VH: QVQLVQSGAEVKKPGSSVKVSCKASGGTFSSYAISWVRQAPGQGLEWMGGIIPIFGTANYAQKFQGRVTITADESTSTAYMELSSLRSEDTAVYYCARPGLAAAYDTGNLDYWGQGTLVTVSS VL: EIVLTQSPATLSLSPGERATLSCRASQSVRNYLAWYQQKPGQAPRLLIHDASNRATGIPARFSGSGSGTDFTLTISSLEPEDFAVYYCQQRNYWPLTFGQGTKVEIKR", "valueUnit": "M⁻¹ s⁻¹", "kon": 336000}
{"binder": "PD1B183 (antibody, human IgG2, kappa, V domains shown, IgG2sigma/kappa; VH 43, VL 54; also called PD1H3/PD1L109) VH: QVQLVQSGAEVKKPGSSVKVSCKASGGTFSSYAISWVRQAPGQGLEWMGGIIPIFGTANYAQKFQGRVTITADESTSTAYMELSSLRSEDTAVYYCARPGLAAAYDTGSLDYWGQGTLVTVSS VL: EIVLTQSPATLSLSPGERATLSCRASQSVSSYLAWYQQKPGQAPRLLIKDASNRATGIPARFSGSGSGTDFTLTISSLEPEDFAVYYCQQRGYWPLTFGQGTKVEIKR", "valueUnit": "M⁻¹ s⁻¹", "kon": 337000}
